From: PubChem BioAssay (NCI)

# method-description: NCI Yeast Anticancer Drug Screen. Data for the mlh1 strain (AID 171);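 further: 0% = growth of vehicle-treated control cultures of the same strain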
# conditions-used: S. cerevisiae mlh1 strain growth inhibition; at 3.7 µM
Compounds without any hit were thinned out: in the full panel of roughly 79,000, 15% have a hit. Calls of active or inactive are those of the source. No stated cut-off is given here; in the data, active means growth inhibition above about 70%; inactive means the rest.
Output constraint: value belongs to true (1) for active, false (0) for inactive

compound	class
Cc1cccc(/C=N/NC(=S)NC2CCCCC2)n1	false (0)
NCCCSc1ccccc1	false (0)
CCOC(=O)/C(=C/c1cccc(Cl)c1)N(CC)CC	false (0)
O=C(C#Cc1ccccc1)Nc1ccccc1	false (0)

Qu. Would you mind telling me which call this test gave c1ccc(-c2cc(C3CO3)c3ccccc3n2)cc1 (configuration not stated) ?
Ans. false (0)

Qu. Hi, sorry to bother you, what did the test record for NC(=S)N1N=C2c3ccccc3CC[C@H]2[C@@H]1c1ccc(Cl)cc1 ?
Ans. false (0)

Qu. Any idea what this test logged for O=c1c2ccccc2nc(-c2cccc([N+](=O)[O-])c2)n1O ?
Ans. false (0)

Qu. How was S=C1N(c2ccc(Cl)cc2)C2=C(N=Nc3ccccc3)C(=Nc3ccccc3S2)N1c1ccccn1 classified in this test?
Ans. false (0)

Qu. Dear colleague, could you share the recorded outcome for COc1cc2oc3ccccc3c(=O)c2cc1CSc1ccccc1N when you have a moment?
Ans. false (0)

Qu. # lookup: test call for CC(C)OP(=O)(OC(C)C)/C(Cl)=N/Nc1ccc([N+](=O)[O-])cc1
Ans. false (0)
